Target entity: T1, FX activation peptide 12-mer NPFDLLDFNQTQ (human)
T1 peptide: NPFDLLDFNQTQ-biotin
Experimental details: peptide ELISA
Ends that are not written are not given here.
Item-by-item account of ELISA signal relative to background
Measured endpoint: ELISA signal relative to background

{"columns": ["Binder", "Measured endpoint", "Result"],
 "data": [
  ["Nb 501A02 (VHH, monovalent control Nanobody; also called control Nanobody; not shown: C-terminal FLAG3 and HIS6 tag) VHH: EVQLVESGGGLVQPGGSLRLSCAASGFTFSNYEMSWVRQAPGKGLEWVSDIGSGGGVSTYYADSVKGRFTISRDNAKNTLYLQMNSLKPEDTAMYYCARGWTYGSDGMDYWGKGTLVTVSS", "ELISA signal relative to background", 0.94],
  ["Nb 729A04 (VHH, monovalent Nanobody; not shown: C-terminal FLAG3 and HIS6 tag) VHH: EVQLVESGGGVVQPGGSLRLSCAASGFTFSDYAMSWVRQAPGKGLEWVSGITSGGGRTYYADSVKGRFTISRDNSKNTLYLQMNSLRPEDTALYYCAAVRTLGLRGSYDYWGQGTLVTVSS", "ELISA signal relative to background", 8.27],
  ["Nb 702C12 (VHH, monovalent Nanobody; not shown: C-terminal FLAG3 and HIS6 tag) VHH: EVQLVESGGGVVQPGGSLRLSCVASGRTFSRYAMGWFRQAPGKEREFVAAISRRGGSTNYADSVKGRFTISRDNSKNTVYLQMNSLRPEDTALYYCAADYSSGDGYLDYWGQGTLVTVSS", "ELISA signal relative to background", 3.13],
  ["Nb 729C08 (VHH, monovalent Nanobody; also called Nb 729008; not shown: C-terminal FLAG3 and HIS6 tag) VHH: EVQLVESGGGVVQPGGSLRLSCAASGFTFSDYAMSWVRQAPGKGLEWVSGITGGGRTYYADSVKGRFTISRDNSKNTLYLQMNSLRPEDTALYYCAAAILTRTRRTYDYWGQGTLVTVSS", "ELISA signal relative to background", 3.41]
]}
